Catalogue of molecules with associated log10(IC50)
Target: NET (norepinephrine transporter) (Rattus norvegicus)
Construct: Cortex from rat brain was collected and homogenised; from tissue; host or cells: rat brain cortex
Sequence (Q63380 1-617): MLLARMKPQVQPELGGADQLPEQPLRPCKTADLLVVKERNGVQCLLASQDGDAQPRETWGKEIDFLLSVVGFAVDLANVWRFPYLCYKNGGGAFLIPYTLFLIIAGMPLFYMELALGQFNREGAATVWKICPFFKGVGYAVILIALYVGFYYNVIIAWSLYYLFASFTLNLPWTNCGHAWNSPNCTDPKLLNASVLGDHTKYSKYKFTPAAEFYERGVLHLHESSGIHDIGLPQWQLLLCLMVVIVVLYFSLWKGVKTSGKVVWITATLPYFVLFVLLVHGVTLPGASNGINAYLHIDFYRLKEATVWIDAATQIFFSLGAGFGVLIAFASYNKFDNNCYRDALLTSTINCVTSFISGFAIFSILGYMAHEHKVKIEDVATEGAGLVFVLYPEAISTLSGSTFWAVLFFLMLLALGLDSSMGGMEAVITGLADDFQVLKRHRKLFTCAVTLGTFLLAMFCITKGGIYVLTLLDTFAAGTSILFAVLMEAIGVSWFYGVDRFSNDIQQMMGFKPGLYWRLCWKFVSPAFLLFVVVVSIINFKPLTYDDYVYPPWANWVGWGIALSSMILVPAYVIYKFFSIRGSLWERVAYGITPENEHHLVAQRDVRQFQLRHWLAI
Assay: In vitro determination of NET reuptake inhibition ([3H]Nixosetine binding, rat brain cortex)
Settings: rat brain cortex, read-out: NET pIC50 (converted)
Remember, log10 of IC50, in nM.

Below, 4 molecules whose answers are already recorded.
Fc1ccc2c(c1)C1OC(CN3CCN(Cc4cccs4)CC3)CC1c1ccccc1C2 (stereo not shown) | 2.99
OC(COCc1ccco1)CN1CCN(CC2CC3c4ccccc4Cc4ccc(F)cc4C3O2)CC1 (mixture of isomers) | 3.26
Fc1ccc2c(c1)C1OC(CN3CCN(Cc4ccc5ccccc5c4)CC3)CC1c1ccccc1C2 (stereo not shown) | 3.50
CCNC(=O)OCC1CCN(CC2CC3c4ccccc4Cc4ccc(F)cc4C3O2)C1 (mixture of isomers) | 3.02

Query CN(C)C(=O)CC1CN(C[C@H]2C[C@@H]3c4ccccc4Cc4ccc(F)cc4[C@@H]3O2)CCO1 (stereo partly shown) yields log10(IC50) of 1.85

Query OCCC1CCCN(CC2CC3c4ccccc4Cc4ccc(F)cc4C3O2)C1 (mixture of isomers) yields log10(IC50) of 3.58

Query Fc1ccc2c(c1)C1OC(CN3CCN(Cc4cccc5ccccc45)CC3)CC1c1ccccc1C2 (stereo not shown) yields log10(IC50) of 3.21
